# Test system: MS2 coat protein
# Test Description: apparent Kd, MS2 coat protein; higher = weaker binding; RNA-MaP array; theophylline 2 mM where present
# Experimental Conditions: ligand present: theophylline; designed as: ON switch for theophylline
Readout Kind: apparent Kd (nM)
Lab book: enter the figure in nM, no units written.

Asked: Could you tell me which apparent Kd is on file for GGUGUAUCCAUCGAUACCAGCCACCACCGAUAGACCACAUGAGGAUCACCCAUGUUGGGUGGCCCUUGGCAGCGGUGGCUGUGCC ?
Given back: 172

Asked: Could you tell me which apparent Kd is on file for UUAAGAGGCUAUCAAAUUUGAUUUUGUGAUACCAGAAUAAUUUUAUUCCCUUGGCAGCAUGACAUGAGGAUCACCCAUGUGUCUU ?
Given back: 30.2

Asked: Could you tell me which apparent Kd is on file for AGUACUCGAACGGAUACCAGCCGGACAUGAGGAUCACCCAUGUCCUACCAUGUUUCGGUUGGCCCUUGGCAGCCGUUCGUGUACA ?
Given back: 30.4

Asked: Could you tell me which apparent Kd is on file for UUUGAUAGGACAGAUACCAGCGUGUUGUAGAACAUGAGGAUCACCCAUGUAGUGAUCAAGCGCCCUUGGCAGCUGGUUUGUUAGG ?
Given back: 82.6

Asked: Could you tell me which apparent Kd is on file for AUCGUACCUGGUGAUACCAGCAAUUGCUCGUGACAUGAGGAUCACCCAUGUGACCAGUGAUGCCCUUGGCAGCAUGGUCGGUGCA ?
Given back: 27.2

Asked: Could you tell me which apparent Kd is on file for UUACGAGGCUAUCCACUUUGAUUUUGUGAUACCAGAAUAAUUUUAUUCCCUUGGCAGCAUGACAUGAGGAUCACCCAUGUGUCUU ?
Given back: 61.7

Asked: Could you tell me which apparent Kd is on file for AUUGGGUUAUCAGAUACCAGACUAUUCUAGACAUGAGGAUCACCCAUGUAUUGGGUUUUCGUCCCUUGGCAGCUGUUAAGUUUAA ?
Given back: 113

Asked: Could you tell me which apparent Kd is on file for AGUGUUAUAACUGAUACCAGACCUUUGCUUAUACAUGAGGAUCACCCAUGUAAAAUGGCGGUCCCUUGGCAGCAGAGAAUACGCA ?
Given back: 13.2

Asked: Could you tell me which apparent Kd is on file for UCUUUCUUUGUAGAUACCAGCAUGUUAAGUUUCUUUUGACAUGAGGAUCACCCAUGUACAUGCCCUUGGCAGCUACAUUUUCUUU ?
Given back: 16.5

Asked: Could you tell me which apparent Kd is on file for AAUUAAUUAACCGAUACCAGCCAACCAAAACAUGAGGAUCACCCAUGUAAGAAGAAGGGUGGCCCUUGGCAGCGGUUAAUUAAUU ?
Given back: 9.07

Asked: Could you tell me which apparent Kd is on file for ACGUCAACCCUUAUGUUGAUGCAAGACGAUACCAGCCUGGAUACAGGCCCUUGGCAGCGUCAACAUGAGGAUCACCCAUGUAAUA ?
Given back: 118

Asked: Could you tell me which apparent Kd is on file for UAUUUUGGGCGCGAGCCCGGGAUAAUUGAUACCAGUGAAGAAGAGCGCCCUUGGCAGCGAAUCCUAACAUGAGGAUCACCCAUGU ?
Given back: 60

Asked: Could you tell me which apparent Kd is on file for UGUAACAUGAGGAUCACCCAUGUGCACGAUACCAGCUUAUUGAUAGGCCCUUGGCAGCGUAUGCGGAAGCUGUAUAAUAUAUAUC ?
Given back: 12.7

Asked: Could you tell me which apparent Kd is on file for UGUUUUAAAAGUGAUACCAGACAAACAUGAGGAUCACCCAUGUAACAUGAGAGAUAAUAAGUCCCUUGGCAGCACAUAAUUAGUA ?
Given back: 26.4

* * *

# System: MS2 coat protein
# Test Description: apparent Kd, MS2 coat protein; higher = weaker binding; RNA-MaP array; FMN 200 µM where present
# Experimental Conditions: designed as: OFF switch for flavin mononucleotide; no ligand
Readout Kind: apparent Kd (nM)
Lab book: enter the figure in nM, no units written.

Asked: Could you tell me which apparent Kd is on file for GGGUGACAUGAGGAUCACCCAUGUCAGGAUAUGGGCCCGGGUUUGAAAGGGCCCGGGCCCAGAAGGGACUGCCC ?
Given back: 55.3

Asked: Could you tell me which apparent Kd is on file for GUUAAACAUGAGGAUCACCCAUGUAAGGAUAUGCUGCGGUCGCGCUGACGUGACUGCAGCAGAAGGUACAAAUG ?
Given back: 105

Asked: Could you tell me which apparent Kd is on file for GGUGCGUAUGUGAGGAUAUGCUGGUCCUUGGAUCGGCAGAAGGUACAUGAGGAUCACCCAUGUGGUGUCGUUCC ?
Given back: 97.5

Asked: Could you tell me which apparent Kd is on file for AAUAACAGAGGAUAUACUGUUUUAUGUGUUUAUUGUUUUAAACAUGAGGAUCACCCAUGUAGAAGGCUGAAUAA ?
Given back: 27.4

Asked: Could you tell me which apparent Kd is on file for UGUGUGUCAGGAUAUCGCGCGCGCGCGGAAAUGUGUGUGUGUGAGAAGGGACAUGAGGAUCACCCAUGUGCGCG ?
Given back: 115

Asked: Could you tell me which apparent Kd is on file for UGAAAUCAUGUAGGAUAUGCAUGGCGAAGCUACGCAGAAGGACAUGAGGAUCACCCAUGUUAUAGCUACCCAGUUCGGUGGCAC ?
Given back: 46

Asked: Could you tell me which apparent Kd is on file for AGGUAGUCAGGAUAUUAGUGGUAGAGGGAUAACUUUAUUGUUGAGAAGGGACAUGAGGAUCACCCAUGUUUUGU ?
Given back: 26.3

* * *

# System: MS2 coat protein
# Test Description: apparent Kd, MS2 coat protein; higher = weaker binding; RNA-MaP array
# Experimental Conditions: ligand present: theophylline; designed as: ON switch for theophylline
Class satisfied: apparent Kd at least 20 nM. Class not satisfied: apparent Kd below 20 nM.

Asked: Assess whether reported apparent Kd for GGGCGACAUGAGGAUCACCCAUGUGUCGAUACCAGUAUGAAUUUCUACCCUUGGCAGCGACGACACGGUUAUUUGUGCACUUCGA sits at 20 nM or higher.
Given back: satisfied

Asked: Assess whether reported apparent Kd for AUGCGCUAUAUGGAUACCAGUAUGAUAAUUGACAUGAGGAUCACCCAUGUGAGCUCUACCUACCCUUGGCAGCCAACCCUAUUUG sits at 20 nM or higher.
Given back: satisfied

Asked: Assess whether reported apparent Kd for UAUGUCGCCGAAGAUACCAGCCUGGCAAGCAACAUGAGGAUCACCCAUGUAAUUACUUAUGGCCCUUGGCAGCUUCAAAUAGAGC sits at 20 nM or higher.
Given back: not satisfied

Asked: Assess whether reported apparent Kd for ACUGGACAUGAGGAUCACCCAUGUGGCGAUACCAGUUUCAGCGGGAACCCUUGGCAGCGCGGUGCCGGCCAUAGAAGUUCUGGGA sits at 20 nM or higher.
Given back: satisfied

Asked: Assess whether reported apparent Kd for ACGAGACGUCUGGAUACCAGCCCAGCGAUAAACAUGAGGAUCACCCAUGUCAAACCACCCGGCCCUUGGCAGCCACGUACCUCAC sits at 20 nM or higher.
Given back: not satisfied

Asked: Assess whether reported apparent Kd for UACAAACAUGAGGAUCACCCAUGUAGUGAUACCAGCAUAACAGAUUGCCCUUGGCAGCACCGGUUUGUACUCAAACGAAGUACGG sits at 20 nM or higher.
Given back: satisfied

* * *

Kindly state apparent Kd for each of the entries shown.
# System: MS2 coat protein
# Test Description: apparent Kd, MS2 coat protein; higher = weaker binding; RNA-MaP array
# Experimental Conditions: designed as: OFF switch for tryptophan; no ligand
Lab book: enter the figure in nM, no units written.

Asked: Could you tell me which apparent Kd is on file for UGGACGCAACGAGCACGAGGUCGGCAGCUACGAGGACCGGUACGGCCGCCACUCGAGUUACGACAUGAGGAUCACCCAUGUAAGG ?
Given back: 41.6

Asked: Could you tell me which apparent Kd is on file for UCUUCGUUGGCGUCACAAUUCAUGCAAUGCCGAGGACCGGUACGGCCGCCACUCGGACUAAUACAUGAGGAUCACCCAUGUCGUG ?
Given back: 123

Asked: Could you tell me which apparent Kd is on file for AUUUGGCGUAGUGUUGCUCGUGGGAUAAAACGAGGACCGGUACGGCCGCCACUCGAUGAUUAACAUGAGGAUCACCCAUGUAAAU ?
Given back: 24.6

* * *

Kindly state apparent Kd for each of the entries shown.
# Tested on: MS2 coat protein
# Test Description: apparent Kd, MS2 coat protein; higher = weaker binding; RNA-MaP array
# Experimental Conditions: ligand present: flavin mononucleotide; designed as: ON switch for flavin mononucleotide
Lab book: enter the figure in nM, no units written.

Asked: Could you tell me which apparent Kd is on file for GGUUGACCUGAGGAACAUGAGGAUCACCCAUGUGUUAGCGGAAAGGAUAUUCGAUUGCACGUUAAGAAGAAGGUUCCAACGUUA ?
Given back: 15.8

Asked: Could you tell me which apparent Kd is on file for UGAAAUUACGGAGGAUAUCUAUUUACAUGAGGAUCACCCAUGUCCCAGCUACUGCUAUUAUCCGCAGAGAAGGCCGGUGAGUCC ?
Given back: 105

Asked: Could you tell me which apparent Kd is on file for CUAGAAGACACGGAGGAUAUGUUGUGUAUUACAUGAGGAUCACCCAUGUUCGGAAGUACCGAUUGACAGAAGGCCGUGCAAUCGCU ?
Given back: 5.73

Asked: Could you tell me which apparent Kd is on file for ACUCAACAUGAGGAUCACCCAUGUACUCCAAACAAAGGAUAUUGUGAGUUAAUAUGCAUGCAAGAAGGUUGGUUCA ?
Given back: 36.3

Asked: Could you tell me which apparent Kd is on file for GUGAUACUUGGAGGAUAUGCUUUCACCUGGUACUCUAUUACAGUGACAUGAGGAUCACCCAUGUAGCAGAAGGCCAGUCAUCGA ?
Given back: 9.73

Asked: Could you tell me which apparent Kd is on file for GAUAUGGUGGCUCAGGAUAUGCAAGGCUUAACAUGAGGAUCACCCAUGUUAUUUAAUGUGCAAGCGCAGAAGGGAGCUUGGCAAAA ?
Given back: 5.53

Asked: Could you tell me which apparent Kd is on file for GUACGGUUCCAAGGAUAUGAUAGGUGACAUGAGGAUCACCCAUGUGCCGGUGGUGGGAGCGAGGAUCAGAAGGUGGCCAGCGGU ?
Given back: 45.4

Asked: Could you tell me which apparent Kd is on file for ACUCUCGGCUAAGGAUAUCUCCGACUGACCAAUAGAGAAGGUAGUCGACGUGCGAUCAGACAUGAGGAUCACCCAUGUGAAAUC ?
Given back: 7.14

Asked: Could you tell me which apparent Kd is on file for GUUAUCGAACAUGAGGAUCACCCAUGUCAGAGCGGCCGACAGAGAAGGCCAAUUGACAAAUGAUUGGAGGAUAUCUGUACUUUU ?
Given back: 7.57

Asked: Could you tell me which apparent Kd is on file for AACAGAAGGCAAGGAUAUAAGGGACCCCCAACAUGAGGAUCACCCAUGUUCUAUGAGGCCGAAUUUUAGAAGGUGCGGGACUAG ?
Given back: 32.2

Asked: Could you tell me which apparent Kd is on file for AUAAAACAUGAGGAUCACCCAUGUAUAGAAAGCGCAGGAUAUAGGUGAUCAUAGUACUAUCAAGAAGGGCGGAACC ?
Given back: 184

Asked: Could you tell me which apparent Kd is on file for CCGCCACGUCAAGGAUAUGCACGGGAGCCCGUAGCAGAAGGUGAGGCGAACGCCAUCCCACAUGAGGAUCACCCAUGUACGGGC ?
Given back: 202

Asked: Could you tell me which apparent Kd is on file for GGAUGCUCGACUCAGGAUAUACACACCGCAACAUGAGGAUCACCCAUGUAAUACGAACAAUGCACGUAGAAGGGAGGUUAACUCGA ?
Given back: 19.1

Asked: Could you tell me which apparent Kd is on file for GUGAUCAGCGAGAAGGAGCGUGAACUGUUACGGAGAUGUAACAUAACAUGAGGAUCACCCAUGUGCUAGGAUAUCGGUAAAUAU ?
Given back: 7.4
